Reference source for all entries: PubChem BioAssay AID1159580

Experiment: chemical genetic growth profiling, strain panel (AID 1159580);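 note: tested at 20 µM; growth read once vehicle control cultures reached saturation at 30 °C; 1 = growth at the plate median or of vehicle wells; lower values mean less growth of the strain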
Conditions: S. cerevisiae deletion strains, growth OD, locus YLR320W, strain mms22, hits give low values
About 2,000 (36%) of roughly 5,500 compounds were called active. Inconclusive results (about 18%) are left out. Some of the results follow.
For each entry below, report its normalized growth value.
Field format: numeric only.

[Q] Kindly indicate its recorded normalized growth. Item: COc1cc(C)c(C(=O)Oc2cc(C)c(C(=O)O)c(O)c2C)c(OC)c1C
[A] 0.859

[Q] Identify the reported normalized growth for the following entry. CC12CC3CC(C)(C1)CC(N)(C3)C2
[A] 1

[Q] Indicate the recorded normalized growth value for this compound: C=C1C(C2(C)C=CC(=O)C(C)(C)C2CC(=O)OC)CC[C@@]2(C)[C@H](c3ccoc3)OC(=O)C3OC132 (stereo not given in full)
[A] 1

[Q] Identify the reported normalized growth for the following entry. CC1CCC2(OC1)OC1CC3C4CCC5C[C@@H](O)CCC5(C)C4=CCC3(C)C1[C@@H]2C (stereo not given in full)
[A] 1

[Q] Supply normalized growth value. Item: COc1cc(S(C)=O)ccc1-c1nc2ncccc2[nH]1 (stereo not given)
[A] 0.995

---

Assign normalized growth to each entry below.
Assay: chemical genetic growth profiling, strain panel (AID 1159580);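 note: tested at 20 µM; growth read once vehicle control cultures reached saturation at 30 °C; 1 = growth at the plate median or of vehicle wells; lower values mean less growth of the strain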
Settings: S. cerevisiae deletion strains, growth OD, locus YKR026C, strain gcn3, hits give low values
About 2,000 (36%) of roughly 5,500 compounds were called active. Roughly 18% stayed inconclusive and do not appear here. The list shows a part of the results.
# answer = number (no unit)

[Q] For the compound CC1(C)C(O)CC(O)C2(C)C1CC(O)C1(C)C2CCC2(C)C(c3ccoc3)OC(=O)C3OC321 (stereo not drawn) , report normalized growth.
[A] 0.989

[Q] Name the recorded normalized growth of the item O=C(Nc1ccccc1)Nc1ccccc1 in your answer.
[A] 0.967

[Q] Give reported normalized growth value for NC(N)=O
[A] 1.01

[Q] Output normalized growth of CCCCCC1C(=O)CCC1CC(=O)O (stereo not drawn)
[A] 0.985

[Q] Identify the reported normalized growth for the following entry. C[C@@H]1O[C@@H](O[C@H]2C[C@@H](O)[C@]3(CO)C4C(CC[C@]3(O)C2)[C@@]2(O)CC[C@H](C3=CC(=O)OC3)[C@@]2(C)C[C@H]4O)[C@H](O)[C@H](O)[C@H]1O (stereo partly drawn)
[A] 1.02

[Q] Supply measured normalized growth of C=C1C2CC[C@@]3(C)[C@H](c4ccoc4)OC(=O)C[C@]13O[C@H]1CC(O)C(C)(C)C(CC(=O)OC)[C@@]21C (stereo partly drawn) in your reply.
[A] 0.985

[Q] State its normalized growth: N#C/C(=C\c1cccc(O)c1)C(=O)O
[A] 1

[Q] Please give the documented normalized growth of COc1c(Cl)ccc(Cl)c1C(=O)O
[A] 0.984

[Q] Identify measured normalized growth associated with N[C@H](Cc1cc(I)c(Oc2ccc(O)c(I)c2)c(I)c1)C(=O)O
[A] 0.999

[Q] Please report normalized growth for the following compound: C=C1[C@H]2CC[C@@]3(C)[C@H](c4ccoc4)OC(=O)C[C@]13O[C@H]1C[C@H](O)C(C)(C)[C@H](CC(=O)OC)[C@]12C
[A] 1.02

[Q] Tell me normalized growth reported for O=[N+]([O-])c1cccc2cn[nH]c12
[A] 1

[Q] Look up normalized growth of N[C@H](Cc1ccccc1)C(=O)O and report it.
[A] 0.988

[Q] Respond only with normalized growth recorded for CCCCC[C@H](CC(=O)NO)C(=O)N[C@H](C(=O)N1CCC[C@H]1CO)C(C)C
[A] 1.01
